// reported pIC50 per item
- assayed system: human E3 ubiquitin-protein ligase RNF31 (HOIP) (Homo sapiens)
- protocol: Cell-free HTRF-based HOIP inhibition assay
- Format: biochemical
pIC50: −log10 of the molar value.

Consider the reported pIC50 for these compounds:
COc1ccc(S(=N)(=O)/C=C/CNC(=O)c2cc(-c3ccccc3)c[nH]c2=O)cc1F (stereo not shown)	≥ 6.00
O=C(NC/C=C/S(=O)(=O)c1ccccc1)c1cc2cccnc2[nH]c1=O	≥ 6.00
COc1ccc(S(=N)(=O)/C=C/CNC(=O)c2cc3c([nH]c2=O)C(C)(C)CCC3)cc1F (stereo not shown)	≥ 5.00
O=C(NC/C=C/S(=O)(=O)c1ccccc1)c1cc2c([nH]c1=O)CCN(C(=O)C1CC1)C2	≥ 6.00
O=C(NC/C=C/S(=O)(=O)c1ccc(Cl)cc1)c1cc2c([nH]c1=O)CCCC2	≥ 7.00

In one line, give reported pIC50 of the entry [2H]C([2H])(/C=C/S(=O)(=O)c1ccccc1)NC(=O)c1cc2c([nH]c1=O)CCCC2 .
≥ 6.00

In one line, give reported pIC50 of the entry O=C(NC/C=C/S(=O)(=O)c1ccc(Br)cc1)c1cc2c([nH]c1=O)CCCC2 .
≥ 7.00

----------
// reported pIC50 per item
- assayed system: human E3 ubiquitin-protein ligase RNF31 (HOIP) (Homo sapiens, UniProt Q96EP0)
- protocol: Cell-free HTRF-based HOIP inhibition assay
- Type: biochemical
- Experimental: This assay was performed in the following steps: • a) synthesis of recombinant fragment of human E3 ubiquitin-protein ligase RNF31 (HOIP), expressed with purity >90% in E. coli system (the protein was prepared as 1 mg/mL stock in a standard formulation); • b) incubation of the compounds in a typical concentration range: 100-0.005 μM, at a final DMSO conc. […]
pIC50: −log10 of the molar value.

N#CC1(C(=O)N2CCc3[nH]c(=O)c(C(=O)NC/C=C/S(=O)(=O)c4ccccc4)cc3C2)CCC1 [Example 111]	≥ 5.00
CC(C)(C)S(=O)(=O)/C=C/CNC(=O)c1cc2c([nH]c1=O)CCCC2 [Example 23]	≥ 4.00
N=S(=O)(/C=C/CNC(=O)c1cc2c([nH]c1=O)CCN(C(=O)OCCF)C2)c1ccccc1 (stereo not drawn) [Example 181]	≥ 6.00
O=C(NC/C=C/S(=O)(=O)c1ccc(F)cc1Cl)c1cc2c([nH]c1=O)CCCC2 [Example 33]	≥ 7.00
N#Cc1cc(S(=N)(=O)/C=C/CNC(=O)c2cc3c([nH]c2=O)CCCC3)ccc1N1CCCCC1 (stereo not drawn) [Example 173]	≥ 7.00
COc1ccc(S(=N)(=O)/C=C/CNC(=O)c2cc3c([nH]c2=O)CCN(C(=O)OC(C)(C)C)C3)cc1F (stereo not drawn) [Example 152]	≥ 7.00

In one line, give reported pIC50 of the entry N=S(=O)(/C=C/CNC(=O)c1cc2c([nH]c1=O)CCN(C(=O)OCC1CC1)C2)c1ccccc1 (stereo not drawn) [Example 179] .
≥ 6.00

In one line, give reported pIC50 of the entry O=C(NC/C=C/S(=O)(=O)c1ccccc1)c1cc2c([nH]c1=O)CCN(C(=O)C1CC(F)(F)C1)C2 [Example 102] .
≥ 5.00

In one line, give reported pIC50 of the entry CC(OC(=O)N1CCc2[nH]c(=O)c(C(=O)NC/C=C/S(=O)(=O)c3ccccc3)cc2C1)C(F)(F)F (stereo not drawn) [Example 72] .
≥ 6.00

In one line, give reported pIC50 of the entry CC(C)(C)OC(=O)N1CCc2[nH]c(=O)c(C(=O)NC/C=C/S(=O)(=O)c3ccc(F)cc3)cc2C1 [Example 25] .
≥ 7.00

In one line, give reported pIC50 of the entry O=C(NC/C=C/S(=O)(=O)c1ccccc1)c1cc2c([nH]c1=O)CCN(C(=O)C1CCC(F)(F)CC1)C2 [Example 108] .
≥ 5.00

In one line, give reported pIC50 of the entry CN(C)c1cccc(S(=N)(=O)/C=C/CNC(=O)c2cc3c([nH]c2=O)CCCC3)c1 (stereo not drawn) [Example 165] .
≥ 6.00

In one line, give reported pIC50 of the entry COc1ccc(S(=N)(=O)/C=C/CNC(=O)c2cc3c([nH]c2=O)CCC(C(C)(C)C)C3)cc1F (stereo not drawn) [Example 148] .
≥ 6.00

In one line, give reported pIC50 of the entry N=S(=O)(/C=C/CNC(=O)c1cc2c([nH]c1=O)CCCC2)c1ccccc1F (stereo not drawn) [Example 132] .
≥ 6.00

In one line, give reported pIC50 of the entry COc1ccc(S(=N)(=O)/C=C/CNC(=O)c2cc3c([nH]c2=O)CCCC3)c(C)c1 (stereo not drawn) [Example 139] .
≥ 6.00

----------
- assayed system: human E3 ubiquitin-protein ligase RNF31 (HOIP) (Homo sapiens, UniProt Q96EP0)
- protocol: Cell-free HTRF-based HOIP inhibition assay
- Format: biochemical
measured property: IC50

Consider the reported IC50 for these compounds:
COc1ccc(S(=N)(=O)/C=C/CNC(=O)c2cc3c([nH]c2=O)CCN(C(=O)OC2CCCCC2)C3)cc1F (stereo not shown) [Example 184]	≤ 100 nM
O=C(NC/C=C/S(=O)(=O)c1ccccc1)c1cc2c([nH]c1=O)CCN(C(=O)C13CCC(CC1)C3)C2 [Example 110]	≤ 1000 nM
N=S(=O)(/C=C/CNC(=O)c1cc2c([nH]c1=O)CCCC2)c1ccc(N2CCCCC2=O)cc1 (stereo not shown) [Example 176]	≤ 1000 nM

Now consider the entry below.
In one line, give reported IC50 of the entry N=S(=O)(/C=C/CNC(=O)c1cc2c([nH]c1=O)CCCC2)c1cccc(Oc2ccccc2)c1 (stereo not shown) [Example 146] .
≤ 100 nM

----------
// reported IC50 per item
- assayed system: human E3 ubiquitin-protein ligase RNF31 (HOIP) (Homo sapiens)
- Sequence (Q96EP0 695-1072 limits assumed): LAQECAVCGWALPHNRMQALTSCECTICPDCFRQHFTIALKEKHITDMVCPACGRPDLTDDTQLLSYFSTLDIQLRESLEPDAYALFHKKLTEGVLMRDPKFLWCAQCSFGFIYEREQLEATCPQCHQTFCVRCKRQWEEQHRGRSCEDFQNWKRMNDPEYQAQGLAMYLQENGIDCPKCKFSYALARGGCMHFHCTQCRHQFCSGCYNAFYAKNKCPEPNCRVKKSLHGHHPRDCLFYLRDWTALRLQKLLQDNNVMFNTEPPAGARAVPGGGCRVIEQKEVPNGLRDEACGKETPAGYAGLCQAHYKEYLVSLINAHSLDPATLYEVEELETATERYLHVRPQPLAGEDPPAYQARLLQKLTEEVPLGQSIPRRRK
- protocol: Cell-free HTRF-based HOIP inhibition assay
- Type: biochemical

CC(C)(C)OC(=O)N1CCc2[nH]c(=O)c(C(=O)NC/C=C/S(=O)(=O)c3ccccc3F)cc2C1 [Example 22]	≤ 100 nM
O=C(NC/C=C/S(=O)(=O)c1ccc(C2CC2)cc1)c1cc2c([nH]c1=O)CCCC2 [Example 55]	≤ 100 nM
O=C(NC/C=C/S(=O)(=O)c1ccc(F)cc1)c1cc2c([nH]c1=O)CCCC2 [Example 16]	≤ 100 nM
O=C(NC/C=C/S(=O)(=O)c1ccccc1F)c1cc2c([nH]c1=O)CCCC2 [Example 24]	≤ 100 nM
COc1ccc(S(=O)(=O)/C=C/CNC(=O)c2cc3c([nH]c2=O)CCCC3)cc1 [Example 40]	≤ 1000 nM

In one line, give reported IC50 of the entry COCC(C)OC(=O)N1CCc2[nH]c(=O)c(C(=O)NC/C=C/S(=O)(=O)c3ccc(Cl)cc3)cc2C1 (centres unmarked) [Example 94] .
≤ 100 nM

In one line, give reported IC50 of the entry O=C(NC/C=C/S(=O)(=O)c1ccccc1)c1cc2c([nH]c1=O)CCN(C(=O)OCCc1ccc(Cl)cc1)C2 [Example 122] .
≤ 1000 nM

In one line, give reported IC50 of the entry O=C(NCC=CS(=O)(=O)c1ccccc1)c1cc2c([nH]c1=O)CCN(C(=O)OC1CCOC1)C2 (centres unmarked) [Example 81] .
≤ 1000 nM

----------
- assayed system: UniProt:Q96EP0
- protocol: Cell-free HTRF-based HOIP inhibition assay
- Format: biochemical
pIC50: −log10 of the molar value.
measured property: pIC50

COc1ccc(S(=O)(=O)/C=C/CNC(=O)c2cc3c([nH]c2=O)CCCC3)cc1OC [Example 45]	≥ 6.00
COc1ccc(S(=N)(=O)/C=C/CNC(=O)c2cc3c([nH]c2=O)CCN(C(=O)OCC(F)F)C3)cc1F (stereo not shown) [Example 178]	≥ 7.00
O=C(NC/C=C/S(=O)(=O)c1ccccc1)c1cc2c([nH]c1=O)CCN(C(=O)C1CCOC1)C2 (stereo not shown) [Example 113]	≥ 6.00

In one line, give reported pIC50 of the entry O=C(NC/C=C/S(=O)(=O)c1cccs1)c1cc2c([nH]c1=O)CCCC2 [Example 44] .
≥ 6.00

In one line, give reported pIC50 of the entry O=C(NC/C=C/S(=O)(=O)c1ccc(Cl)cc1)c1cc2c([nH]c1=O)CCN(C(=O)NCC1CC1)C2 [Example 100] .
≥ 6.00

In one line, give reported pIC50 of the entry O=C(NC/C=C/S(=O)(=O)c1ccccc1)c1cc2c([nH]c1=O)CCN(C(=O)OC1CCC3(CC1)COC3)C2 [Example 79] .
≥ 7.00

In one line, give reported pIC50 of the entry O=C(NC/C=C/S(=O)(=O)c1ccc(Cl)cc1)c1cc2c([nH]c1=O)CCN(C(=O)OCC(F)(F)F)C2 [Example 97] .
≥ 7.00
